Listed here are molecules together with their documented IC50.
experimental-target: JAK1 (Homo sapiens)
Sequence (P23458 whole entry): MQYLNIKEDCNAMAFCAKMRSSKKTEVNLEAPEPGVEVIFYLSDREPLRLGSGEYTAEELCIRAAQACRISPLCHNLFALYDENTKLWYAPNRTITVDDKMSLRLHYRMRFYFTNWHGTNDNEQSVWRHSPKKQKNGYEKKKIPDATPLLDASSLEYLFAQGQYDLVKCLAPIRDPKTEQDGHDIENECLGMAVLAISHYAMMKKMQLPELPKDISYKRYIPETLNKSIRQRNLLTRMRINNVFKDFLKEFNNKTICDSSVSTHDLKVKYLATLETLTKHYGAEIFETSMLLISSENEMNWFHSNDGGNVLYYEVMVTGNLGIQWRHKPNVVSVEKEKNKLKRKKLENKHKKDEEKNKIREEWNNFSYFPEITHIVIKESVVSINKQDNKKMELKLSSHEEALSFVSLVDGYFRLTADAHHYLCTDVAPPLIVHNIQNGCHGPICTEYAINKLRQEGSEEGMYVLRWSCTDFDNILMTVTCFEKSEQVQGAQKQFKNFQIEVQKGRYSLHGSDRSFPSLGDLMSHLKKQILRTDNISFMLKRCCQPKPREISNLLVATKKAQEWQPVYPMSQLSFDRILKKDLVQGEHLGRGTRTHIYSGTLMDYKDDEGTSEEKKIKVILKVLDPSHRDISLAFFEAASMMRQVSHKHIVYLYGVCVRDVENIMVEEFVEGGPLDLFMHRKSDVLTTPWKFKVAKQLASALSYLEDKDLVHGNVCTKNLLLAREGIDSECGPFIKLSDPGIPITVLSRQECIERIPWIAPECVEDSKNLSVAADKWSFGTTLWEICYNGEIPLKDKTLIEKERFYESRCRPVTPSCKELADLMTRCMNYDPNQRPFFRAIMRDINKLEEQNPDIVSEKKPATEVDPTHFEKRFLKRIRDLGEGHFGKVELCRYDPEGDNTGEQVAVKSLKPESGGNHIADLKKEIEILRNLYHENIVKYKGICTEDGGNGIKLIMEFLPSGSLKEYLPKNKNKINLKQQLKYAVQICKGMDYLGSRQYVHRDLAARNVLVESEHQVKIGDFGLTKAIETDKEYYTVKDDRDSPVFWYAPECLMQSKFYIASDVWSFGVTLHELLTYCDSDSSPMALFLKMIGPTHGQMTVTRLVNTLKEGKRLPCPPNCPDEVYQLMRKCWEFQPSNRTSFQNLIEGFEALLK
assay-method-text: JAK kinase inhibition assay (EZ Reader, peptide substrate phosphorylation) - JAK1
Format: biochemical
experimental-parameters: JAK1 kinase 20 nM; 8 concentration points, max 10 μM
observation-type: IC50

Cn1cc(Nc2nccc(-c3ccc(NS(=O)(=O)C4CCOCC4)nc3)n2)cn1 | 0.1 to 1 µM
Cn1cc(Nc2nccc(-c3ccc(NS(=O)(=O)CCCF)nc3)n2)cn1 | 1 to 10 µM
Cn1cc(Nc2nccc(-c3ccc(NC(=O)CC#N)c4cc[nH]c34)n2)cn1 | 0.1 to 1 µM
Cn1cc(Nc2nccc(-c3ccnc(NC(=O)C4CC4(F)F)c3)n2)cn1 (centres unmarked) | ≥ 10 µM
Cn1cc(Nc2nccc(-c3cnc(NC(=O)C4CC4(F)F)cn3)n2)cn1 (centres unmarked) | 0.1 to 1 µM
